B1: CPEB3 Ribozyme (parent)
chain: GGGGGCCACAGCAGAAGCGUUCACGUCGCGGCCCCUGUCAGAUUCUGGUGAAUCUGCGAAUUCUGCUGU

variants of: B1; assay: self-cleavage, relative activity (ratio to wild type); higher = more cleavage; co-transcriptional
endpoint: self-cleavage

changes	endpoint	readoutValue
G1A C29A	self-cleavage	0.061
C24U U62G	self-cleavage	0.386
C33A G65U	self-cleavage	0.451
